Would you mind telling me the reported Km of each entry?
# Substrate: Cc1cc(=O)oc2cc(O[C@@H]3OC[C@@H](O)[C@H](O)[C@H]3O)ccc12
# assay-overview: galactosyltransferase assay, HPLC-UV
# Assay type: biochemical, Homo sapiens
# condition-context: apparent, fixed 1 mM UDP-Gal, 10 mM MnCl2, 100 mM sodium cacodylate pH 7.0, 37 °C
Lab book: enter the figure in mM, no units written.

Reported Km for hβ4GalT7 (GST-β4GalT7) (Homo sapiens; R270A) (protein, truncated soluble form lacking the first 60 N-terminal amino acids (transmembrane domain and part of stem), GST fusion (tag kept), pET-41a(+), E. coli BL21(DE3), glutathione-Sepharose purified) VRGQGQETSGPPRACPPEPPPEHWEEDASWGPHRLAVLVPFRERFEELLVFVPHMRRFLSRKKIRHHIYVLNQVDHFRFNRAALINVGFLESSNSTDYIAMHDVDLLPLNEELDYGFPEAGPFHVASPELHPLYHYKTYVGGILLLSKQHYRLCNGMSNRFWGWGREDDEFYRRIKGAGLQLFRPSGITTGYKTFRHLHDPAWRKRDQKAIAAQKQEQFKVDREGGLNTVKYHVASRTALSVGGAPCTVLNIMLDCDKTATPWCTFS was 0.60

Reported Km for hβ4GalT7 (GST-β4GalT7) (Homo sapiens; Y196F) (protein, truncated soluble form lacking the first 60 N-terminal amino acids (transmembrane domain and part of stem), GST fusion (tag kept), pET-41a(+), E. coli BL21(DE3), glutathione-Sepharose purified) VRGQGQETSGPPRACPPEPPPEHWEEDASWGPHRLAVLVPFRERFEELLVFVPHMRRFLSRKKIRHHIYVLNQVDHFRFNRAALINVGFLESSNSTDYIAMHDVDLLPLNEELDYGFPEAGPFHVASPELHPLYHFKTYVGGILLLSKQHYRLCNGMSNRFWGWGREDDEFYRRIKGAGLQLFRPSGITTGYKTFRHLHDPAWRKRDQKRIAAQKQEQFKVDREGGLNTVKYHVASRTALSVGGAPCTVLNIMLDCDKTATPWCTFS was 1.06
